Molecular target: T1, APC2543-AA
T1 chain: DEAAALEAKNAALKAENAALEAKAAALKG
Test: two-hybrid library CCmax;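 further: natural log of median RNA to DNA barcode read ratio; higher means stronger binding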
Conditions: mean of both orientations
resultType: interaction score
The response must contain the number and no unit.

Below are worked cases with known answers.
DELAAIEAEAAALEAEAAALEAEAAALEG [APC222-AA]; -1.8
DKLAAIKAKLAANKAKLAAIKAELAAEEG [APC1916-AA]; -1.62

Now consider a different binder.
QUERY: // lookup interaction score for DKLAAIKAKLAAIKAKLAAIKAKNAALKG [APC1115-AA]
RESULT: -1.49
